property_name: melting point

For each of the molecules below, state melting point.
1. Cl.N#Cc1ccc(Oc2cc(Cl)cc(Cl)c2)c(S(=O)(=O)N2CCNC(Cn3cncn3)C2)c1 (stereo not shown) [Example 1-37]
2. N#Cc1ccc(Oc2cc(Cl)cc(Cl)c2)c(S(=O)(=O)N2CC[C@H](NCCO)C2)c1 [Example 1-16]
3. Cl.Cl.N#Cc1ccc(Oc2cc(Cl)cc(Cl)c2)c(S(=O)(=O)N2CCNC(CN)C2)c1 (stereo not shown) [Example 1-20]
4. N#Cc1ccc(Oc2cc(Cl)cc(Cl)c2)c(S(=O)(=O)N2CCCCC2)c1 [Example 1-5]

**Result**
["184 to 185 °C (dec.)", "155 to 156 °C", "240 to 241 °C", "171 to 172 °C"]

###

Please respond with reported pIC50 for every item in the list.
target: Human CCR3 (Homo sapiens, UniProt P51677); construct: The cloned CCR3 cDNA was constructed with pcDNA3 vector and transfected into a K562 cell line; expressed in transfected cells; experiment: Calcium mobilization assay (Ca2+), eotaxin-stimulated human CCR3-transformed K562 cells; type: cell-based; settings: compounds of about 40 to 90% purity, read-out: Activity grade IC50
pIC50: −log10 of the molar value.

For each of the molecules below, state pIC50.
1. N#Cc1ccc(Oc2cc(Cl)cc(Cl)c2)c(S(=O)(=O)N2CC[C@H](N(CCO)CCO)C2)c1
2. COC(=O)C1CN(C2CCNCC2)CCCN1S(=O)(=O)c1cc(C#N)ccc1Oc1cc(Cl)cc(Cl)c1 (centres unmarked)
3. CC(C)(C)[Si](C)(C)O[C@H]1CN(C2CCN(S(=O)(=O)c3cc(C#N)ccc3Oc3cc(Cl)cc(Cl)c3)CC2)C[C@@H]1O
4. N#Cc1ccc(Oc2cc(Cl)cc(Cl)c2)c(S(=O)(=O)N2CCNC(CN3C(=O)CCC3=O)C2)c1 (centres unmarked)

**Result**
["6.30 to 7.00", "6.30 to 7.00", "6.30 to 7.00", "> 7.00"]

For each of the molecules below, state pIC50.
1. N#Cc1ccc(Oc2cc(Cl)cc(Cl)c2)c(S(=O)(=O)N2CCC[C@H]2CN2CCC[C@H]2CO)c1
2. N#Cc1ccc(Oc2cc(Cl)cc(Cl)c2)c(S(=O)(=O)N2CC3CCN(Cc4ccccc4)C3C2)c1 (centres unmarked)
3. N#Cc1ccc(Oc2cc(Cl)cc(Cl)c2)c(S(=O)(=O)N2CCCCC2)c1
4. CS(=O)(=O)NCC1CN(S(=O)(=O)c2cc(C#N)ccc2Oc2cc(Cl)cc(Cl)c2)CCN1 (centres unmarked)
5. O=S(=O)(c1cc(-n2cnnn2)ccc1Oc1cc(Cl)cc(Cl)c1)N1CCNCC1
6. N#Cc1ccc(Oc2cc(Cl)cc(Cl)c2)c(S(=O)(=O)NC2CCCCNC2=O)c1 (centres unmarked)
7. COC(=O)C1CN(S(=O)(=O)c2cc(C#N)ccc2Oc2cc(Cl)cc(Cl)c2)CCCN1 (centres unmarked)

**Result**
["> 7.00", "> 7.00", "< 6.30", "> 7.00", "< 6.30", "6.30 to 7.00", "6.30 to 7.00"]

For each of the molecules below, state pIC50.
1. N#Cc1ccc(Oc2cc(Cl)cc(Cl)c2)c(S(=O)(=O)N[C@@H]2C[C@H](O)[C@@H](O)C[C@@H]2N)c1
2. COC(=O)[C@@H]1C[C@H](N2CCCC2)CN1S(=O)(=O)c1cc(C#N)ccc1Oc1cc(Cl)cc(Cl)c1
3. N#Cc1ccc(Oc2cc(Cl)cc(Cl)c2)c(S(=O)(=O)N2CCNC(Cn3ncnn3)C2)c1 (centres unmarked)
4. CC(=O)NCC1CN(S(=O)(=O)c2cc(C#N)ccc2Oc2cc(Cl)cc(Cl)c2)CCN1 (centres unmarked)
5. N#Cc1ccc(Oc2cc(Cl)cc(Cl)c2)c(S(=O)(=O)C2CCNCC2)c1

**Result**
< 6.30
> 7.00
> 7.00
> 7.00
< 6.30

**Query** What measured pIC50 goes with "CN(C)CCN(CCN1C(=O)CCC1=O)S(=O)(=O)c1cc(C#N)ccc1Oc1cc(Cl)cc(Cl)c1" ?
**Result** > 7.00

###

Where a name gives a salt, the structure may show the parent alone.
property_name: melting point

Consider the worked cases shown below.
molecule	melting point
N#Cc1ccc(Oc2cc(Cl)cc(Cl)c2)c(S(=O)(=O)C2CCNCC2)c1 (as salt: hydrochloride) [Example 2-1]	220 to 226 °C (dec.)
N#Cc1ccc(Oc2cc(Cl)cc(Cl)c2)c(S(=O)(=O)NC2CCCCNC2=O)c1 (stereo not shown) [Example 1-24]	172 to 173 °C
N#Cc1ccc(Oc2cc(Cl)cc(Cl)c2)c(S(=O)(=O)N2CCC(N3CCC[C@H]3C(=O)O)CC2)c1 [Example 1-33]	224 to 225 °C

Then there is this molecule:
**Query** What measured melting point goes with N#Cc1ccc(Oc2cc(Cl)cc(Cl)c2)c(S(=O)(=O)N2CCNC(CN3C(=O)CCC3=O)C2)c1 (stereo not shown) [Example 1-43] ?
**Result** 123 to 125 °C

###

Target: Human CCR3 (Homo sapiens, UniProt P51677)
Construct: The cloned CCR3 cDNA was constructed with pcDNA3 vector and transfected into a K562 cell line; expressed in transfected cells
Sequence (P51677 1-355): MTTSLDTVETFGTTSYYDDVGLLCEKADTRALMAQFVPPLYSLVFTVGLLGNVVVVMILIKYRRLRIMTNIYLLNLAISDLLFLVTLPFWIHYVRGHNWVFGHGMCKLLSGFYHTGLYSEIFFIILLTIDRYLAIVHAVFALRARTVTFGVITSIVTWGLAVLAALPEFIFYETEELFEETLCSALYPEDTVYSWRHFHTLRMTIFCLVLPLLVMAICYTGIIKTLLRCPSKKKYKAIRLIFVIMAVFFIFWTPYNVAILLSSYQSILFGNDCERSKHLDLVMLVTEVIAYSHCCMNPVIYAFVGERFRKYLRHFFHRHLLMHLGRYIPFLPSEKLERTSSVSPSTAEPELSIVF
Assay: Receptor binding assay (RBA), [125I]-eotaxin on human CCR3-transformed K562 cells
Conditions: compounds of about 40 to 90% purity, read-out: Activity grade CCR3
property_name: IC50

Consider the worked cases shown below.
molecule	IC50
CS(=O)(=O)NCC1CNCCCN1S(=O)(=O)c1cc(C#N)ccc1Oc1cc(Cl)cc(Cl)c1.Cl (centres unmarked)	< 100 nM
N#Cc1ccc(Oc2cc(Cl)cc(Cl)c2)c(S(=O)(=O)N2CCNC(Cn3ncnn3)C2)c1 (centres unmarked)	< 100 nM
CC(=O)c1ccc(Oc2cc(Cl)cc(Cl)c2)c(S(=O)(=O)N2CCNCC2)c1	< 100 nM

For each of the molecules below, state IC50.
1. N#Cc1ccc(Oc2cc(Cl)cc(Cl)c2)c(S(=O)(=O)N[C@@H]2CN3CCC2CC3)c1
2. Cl.N#Cc1ccc(Oc2cc(Cl)cc(Cl)c2)c(S(=O)(=O)N2CCNC(Cn3cncn3)C2)c1 (centres unmarked)

**Result**
1: < 100 nM; 2: < 100 nM
